Target Under Test: human TGR5 receptor (Homo sapiens, UniProt Q8TDU6)
Sequence (Q8TDU6 whole entry): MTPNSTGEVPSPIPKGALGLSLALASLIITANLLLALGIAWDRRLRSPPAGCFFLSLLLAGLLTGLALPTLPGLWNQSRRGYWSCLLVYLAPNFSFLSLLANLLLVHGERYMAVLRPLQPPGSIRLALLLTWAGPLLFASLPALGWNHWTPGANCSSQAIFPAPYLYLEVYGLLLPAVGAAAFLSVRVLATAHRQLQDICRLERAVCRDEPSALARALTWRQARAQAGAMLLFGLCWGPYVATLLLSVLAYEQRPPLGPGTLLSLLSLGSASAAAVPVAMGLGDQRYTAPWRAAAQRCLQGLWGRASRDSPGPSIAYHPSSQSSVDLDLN
Protocol Notes: Human TGR5 cAMP production assay (hTGR5-CHO cells, DiscoveRx cAMP XS+ kit)
Test Context: luminescent cAMP assay, read-out: Human TGR5 Lum. cAMP Activity (EC50)
EC50 listing for selected molecules.

{"Smiles Input": "NS(=O)(=O)CCNC(=O)CCCC1CCN(c2cc(N3CCC[C@H]3C(=O)NCCc3ccc(C(F)(F)F)cc3)nc(C(F)(F)F)n2)CC1", "EC50": "< 100 nM"}
{"Smiles Input": "N#Cc1ccc(CCNC(=O)[C@@H]2CCCN2c2cc(N3CCC(CCNS(=O)(=O)CCNC(=O)[C@@H](N)CS(=O)(=O)O)CC3)nc(C(F)(F)F)n2)cc1", "EC50": "< 100 nM"}
{"Smiles Input": "CCOC(=O)CCN/C(=N\\C#N)NCCC1CCN(c2cc(N3CC[C@H]3C(=O)NCCc3ccc(C#N)cc3)nc(C(F)(F)F)n2)CC1", "EC50": "< 100 nM"}
{"Smiles Input": "CC(=O)N1CCC(Nc2cc(N3CCC[C@H]3C(=O)NCCc3ccc(C#N)cc3)nc(C(F)(F)F)n2)CC1", "EC50": "1000 to 30000 nM"}
{"Smiles Input": "Cc1ccsc1-c1cc(N2CCC[C@H]2C(=O)NCCc2ccc(C#N)cc2)nc(C(F)(F)F)n1", "EC50": "100 to 999 nM"}
{"Smiles Input": "N#Cc1ccc(CCNC(=O)[C@@H]2CCN2c2cc(N3CCC(CCCC(=O)NCCOCCNC(=N)N)CC3)nc(C(F)(F)F)n2)cc1", "EC50": "< 100 nM"}
{"Smiles Input": "CN1CCC(Oc2cc(N3CCC[C@H]3C(=O)NCCc3ccc(C#N)cc3)nc(C(F)(F)F)n2)CC1", "EC50": "100 to 999 nM"}
{"Smiles Input": "N#Cc1ccc(CCNC(=O)[C@@H]2CCCN2c2cc(-c3ccncc3F)nc(C(F)(F)F)n2)cc1", "EC50": "100 to 999 nM"}
{"Smiles Input": "CCOC(=O)CCNC(=O)N1CCN(c2cc(N3CCC[C@@H](C(=O)NCCc4ccc(C(F)(F)F)cc4)C3)nc(C(F)(F)F)n2)CC1", "EC50": "100 to 999 nM"}
{"Smiles Input": "N#Cc1ccc(CCNC(=O)[C@@H]2CCCN2c2cc(-c3csc(C(=O)O)c3)nc(C(F)(F)F)n2)cc1", "EC50": "1000 to 30000 nM"}
{"Smiles Input": "N#Cc1ccc(CCNC(=O)[C@@H]2CCN2c2cc(N3CCC(CCNC(=O)NCS(=O)(=O)O)CC3)nc(C(F)(F)F)n2)cc1", "EC50": "< 100 nM"}
{"Smiles Input": "N#Cc1ccc(CCNC(=O)[C@@H]2CCCN2c2cc(N3CCC(CCCC(=O)NCCC(=O)NC(CO)(CO)CO)CC3)nc(C(F)(F)F)n2)cc1", "EC50": "< 100 nM"}
{"Smiles Input": "N#Cc1ccc(CCNC(=O)[C@@H]2CCCN2c2cc(-c3ccc(CCC(=O)O)cc3)nc(C(F)(F)F)n2)cc1", "EC50": "100 to 999 nM"}

----------
EC50 listing for selected compounds.
Target Under Test: human TGR5 receptor (Homo sapiens, UniProt Q8TDU6)
Construct: host or cells: CHO-K1 (hTGR5-CHO)
Protocol Notes: Human TGR5 cAMP production assay (hTGR5-CHO cells, DiscoveRx cAMP XS+ kit)
Type: cell-based
Test Context: luminescent cAMP assay, read-out: Human TGR5 Lum. cAMP Activity (EC50)

{"Compound": "N#Cc1ccc(CCNC(=O)[C@@H]2CCCN2c2cc(N3CCC(CCNc4c(NCCS(=O)(=O)O)c(=O)c4=O)CC3)nc(C(F)(F)F)n2)cc1", "EC50": "< 100 nM"}
{"Compound": "N#Cc1ccc(CCNC(=O)[C@@H]2C[C@@H](O)CN2c2cc(N3CCC(CCO)CC3)nc(C(F)(F)F)n2)cc1", "EC50": "100 to 999 nM"}
{"Compound": "N#Cc1ccc(CCNC(=O)[C@@H]2CCCN2c2cc(N3CCC(CCCC(=O)NCC(=O)O)CC3)nc(C(F)(F)F)n2)cc1", "EC50": "< 100 nM"}
{"Compound": "N#Cc1ccc(CCNC(=O)[C@@H]2CCCN2c2cc(N3CCC(CCCNC(=O)NCS(=O)(=O)O)CC3)cc(C(F)(F)F)n2)cc1", "EC50": "100 to 999 nM"}
{"Compound": "N#CCCC1CCN(c2cc(N3CCC[C@H]3C(=O)NCCc3ccc(C(F)(F)F)cc3)nc(C(F)(F)F)n2)CC1", "EC50": "< 100 nM"}
{"Compound": "N#Cc1ccc(CCNC(=O)C2CCN2c2cc(-c3ccncc3)nc(C(F)(F)F)n2)cc1 (stereo not shown)", "EC50": "100 to 999 nM"}
{"Compound": "O=C(NCCCC1CCN(c2cc(N3CCC[C@H]3C(=O)NCCc3ccc(C(F)(F)F)cc3)nc(C(F)(F)F)n2)CC1)NCCS(=O)(=O)O", "EC50": "< 100 nM"}
